- Read-out: Cyclin D1 (CCND1), CCND1 (gene 595)
- method-notes: LTEA_HepaRG_CCND1: Life Technologies and Expression Analysis (LTEA) Assay for Cyclin D1 (CCND1) using HepaRG (AID 2283451)
- experimental-conditions: mRNA level, 48 h; actives raise or lower the signal
- Procedure: LTEA_HepaRG is a cell based, multiplexed-readout assay that uses HepaRG, a human liver cell line, with measurements taken at 48 hours after chemical dosing on a 96-well plate.LTEA_HepaRG_CCND1 is one of 102 assay component(s) measured in the LTEA HepaRG cell culture assay. It is a marker of Cell proliferation, survival, death.Data from the assay component LTEA_HepaRG_CCND1 was analyzed into 1 endpoint. […]
Activity calls are given as the source filed them. The calls were made as follows: active = hit-call score of the fitted dose curve at least 0.9, where 1 is the maximum; inactive = score below 0.9.
Labels: Y = active, N = inactive

1. CCOC(=O)COc1ccc2c(c1)CC(NCC(O)c1cccc(Cl)c1)CC2 (centres undefined)	N
2. CC(O)CN(CCN(CC(C)O)CC(C)O)CC(C)O (centres undefined)	Y
3. Cn1cnc([N+](=O)[O-])c1Sc1ncnc2nc[nH]c12	N
4. Nc1nc2ncc(CNc3ccc(C(=O)N[C@@H](CCC(=O)O)C(=O)O)cc3)nc2c(=O)[nH]1	N
5. NC(=O)NO	N
6. CCOCCOCCOCCO	N
7. COc1ccc(/C=C/S(=O)(=O)NC(=O)c2ccc(C)cc2Cl)cc1	N
8. O=C(O)CCN(C1(C(=O)NO)CCCC1)S(=O)(=O)c1ccc(Oc2ccc(F)cc2)cc1	N
9. COc1ccc2sc(C(=O)Nc3nnn[nH]3)c(OC(C)C)c2c1	Y
10. C1=CCCC=CCCC=CCC1	N
11. O=C(CCCCCCCCc1cccnc1)N1CCC(C=C(c2ccccc2)c2ccccc2)CC1	N
12. Oc1ccc2c(c1)-c1ccccc1C2	N
13. O=C(O)CC(O)C(=O)O (centres undefined)	N
14. CCCCCCc1ccc(O)cc1O	N
15. C1N2CN3CN1CN(C2)C3	N
16. On1ccccc1=S	N
17. CCOc1cccc(-n2cc(C(=O)N3CCN(c4cc(C(=O)O)c5ccccc5c4)CC3)nc2-c2ccc(C)cc2)c1	Y
18. CC(C)(O)c1coc(S(=O)(=O)NC(=O)Nc2c3c(cc4c2CCC4)CCC3)c1	N
19. CCOC(=O)c1ccc(C2CCC(NC[C@H](O)COc3ccc(O)c(NS(C)(=O)=O)c3)CC2)cc1 (some centres undefined)	N
20. CNS(=O)(=O)c1cc(C(=O)N2CCC(CCN3C4CCC3CC(n3c(C)nc5ccccc53)C4)(c3cccc(F)c3)CC2)c(Cl)cc1F (centres undefined)	N
21. CCCCC(CC)COC(=O)CCCCCCCCC(=O)OCC(CC)CCCC (centres undefined)	N
22. COc1cccc(-c2ccc(/C=C\CN3CCCCCC3)cc2Cl)c1	Y
23. O=C1OC(=O)C2C3C=CC(C3)C12 (centres undefined)	N
24. O=P(OC(CCl)CCl)(OC(CCl)CCl)OC(CCl)CCl	N
